Provide the recorded AC50 for the entries that follow.
- Tested on: TNF
- TEST_METHOD_NOTES: PBMC assay, TNF release after LPS stimulation
- Assay type: cell-based
- TEST_SETTINGS: human PBMCs, 30 min preincubation, 100 ng/ml LPS for 6 hrs, supernatant, MSD technology

Report value: AC50, system: TNF, compound: CC(C)c1nn(CC(=O)Nc2ccc3nncn3c2)c(=O)cc1Nc1cccc2ocnc12 [Compound 42]
> 20 µM

Lab note: record AC50 of CC(C)CNc1cc(=O)n(CC(=O)Nc2ccc3nncn3c2)nc1C(C)C [Compound 46] tested on TNF.
> 20 µM

Determine reported AC50 for CC(C)c1nn(CC(=O)Nc2ccc3nncn3c2)c(=O)cc1N1CCC2(C1)CC2(F)F (stereo not drawn) [Compound 58] ; test system: TNF.
> 20 µM

Give AC50; test system TNF; compound CC(C)c1nn(CC(=O)Nc2ccc3nncn3c2)c(=O)cc1Nc1cc([C@H]2C[C@H]2C)on1 [Compound 43]
> 20 µM

Write down the reported AC50 (system: TNF) of CC(C)c1nn(CC(=O)Nc2ccc3nncn3c2)c(=O)cc1N1CC2(CCC2)C1 [Compound 49]
8.29 µM

// fetch AC50; item: CC(C)c1nn(CC(=O)Nc2ccc3nncn3c2)c(=O)cc1N1CC2CC2C1 (stereo not drawn) [Compound 14] ; system: TNF
> 10 µM

Retrieve AC50 on TNF; query CC(C)c1nn(CC(=O)Nc2ccc3nncn3c2)c(=O)cc1N1CCCCC1 [Compound 45]
> 20 µM

Using TNF as the test system, report measured AC50 of CC(C)c1nn(CC(=O)Nc2ccc3nncn3c2)c(=O)cc1N1CC[C@@H](F)C1 [Compound 10] .
> 10 µM

Look up and report AC50, with TNF as system, for CC(C)c1nn(CC(=O)Nc2ccc3nncn3c2)c(=O)cc1Nc1ccccc1 [Compound 1]
> 10 µM

Specify the recorded AC50 for CC(C)c1nn(CC(=O)Nc2ccc3nncn3c2)c(=O)cc1N1CC[C@@H](N(C)C)C1 [Compound 27] , system: TNF.
> 10 µM

Give measured AC50 for CC(C)c1nn(CC(=O)Nc2ccc3nncn3c2)c(=O)cc1N1CCOCC1 [Compound 6] (TNF).
> 10 µM

Give measured AC50 for CC(C)c1nn(CC(=O)Nc2ccc3nncn3c2)c(=O)cc1NC1CCCC1 [Compound 7] (TNF).
> 10 µM

Print TNF AC50 for CC(C)c1nn(CC(=O)Nc2ccc3nncn3c2)c(=O)cc1N(C)C [Compound 30] .
> 10 µM

Check TNF data and give AC50 for CC(C)c1nn(CC(=O)Nc2ccc3nncn3c2)c(=O)cc1Nc1cc(CC2CC2)on1 [Compound 44] .
> 20 µM

Fill in AC50 for CC(C)c1nn(CC(=O)Nc2ccc3nncn3c2)c(=O)cc1N1CC(CC(F)F)C1 [Compound 35] tested with TNF.
> 20 µM
